- assay_details: chemical genetic growth profiling, strain panel (AID 1159580);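 further: tested at 20 µM; growth read once vehicle control cultures reached saturation at 30 °C; 1 = growth at the plate median or of vehicle wells; lower values mean less growth of the strain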
- experimental_conditions: S. cerevisiae deletion strains, growth OD, locus YDR335W, strain msn5, hits give low values
Out of some 5,500 compounds screened, about 2,000 (36%) were called active. Another 18% or so got no clear call; they are omitted. The list shows a part of the results.
test_readout: normalized growth

Previously resolved entries follow.
compound	experimental_value
Nc1c2ccccc2nc2ccccc12	0.782 (active)
C[C@@H]1OC(O[C@H]2C(O[C@H]3CC[C@@]4(C)C(CC[C@]5(C)C4CC=C4C6CC(C)(C)CC[C@]6(C(=O)O)CC[C@]45C)[C@]3(C)CO)OC[C@H](O)[C@@H]2O)[C@H](O)[C@H](O)[C@H]1O (some centres undefined)	0.0601 (active)
OC(CCN1CCCCC1)(c1ccccc1)C1CCCCC1 (centres undefined)	0.975 (inactive)
Cc1cc(O)cc(O)c1C(=O)O	1.02 (inactive)
CCCCCCCCCCCCCCC(C(=O)O)C(O)(CC(=O)OC)C(=O)O (centres undefined)	0.977 (inactive)

Fill in: normalized growth of CC1(C)CC(O)C2(C)CCC3(C)C(=CCC4C5(C)CCC(O)C(C)(CO)C5CCC43C)C2C1 (centres undefined) is ___
1.03 (inactive)

May I ask what normalized growth has been recorded for CC(=O)NCc1c(I)c(NC(C)=O)c(I)c(C(=O)O)c1I ?
1.01 (inactive)

Which normalized growth reading was recorded for the compound O=C1c2c(O)cccc2Cc2cccc(O)c21 ?
0.999 (inactive)

Would you mind telling me what normalized growth value was observed for OC(CCN1CCCC1)(c1ccccc1)C1CCCCC1 (centres undefined) ?
0.981 (inactive)

src = PubChem BioAssay AID1159580
